assay: Rat hepatocyte Clint; type: in vitro ADME; settings: rat hepatocytes, intrinsic clearance; read-out: RH CLint
quantity measured: hepatocyte CLint
Quick note: number first, unit second.

* CN1CCCN(c2ncc(-c3ccc4c(c3)ncc3c5ccccc5[nH]c43)cn2)CC1 | 19 µL/min/1e6 cells
* Cc1c(-c2cnc(N3CCCN(C)CC3)nc2)ccc2c(Nc3cnccn3)ccnc12 | 27 µL/min/1e6 cells

Given item `CN1CCN(c2ncc(-c3ccc4c(NCC5CCOCC5)ccnc4c3)cn2)CC1` , the value recorded as its hepatocyte CLint is 23 µL/min/1e6 cells

====

Here the recorded human PPB (plasma protein binding) is given for each entry.
experiment: Human plasma protein binding (equilibrium dialysis); assay type: in vitro ADME; conditions: 10 µM, 37 °C
Quick reminder: number only, in %, skip the unit.

Example cases with answers are listed next.
* O=S(=O)(c1ccc(-c2ccc3nccc(NCCC4CCOCC4)c3c2)cc1)N1CCOCC1 [S3h] | 82
* CN1CCCN(c2ncc(-c3ccc4nccc(Nc5cnccn5)c4c3)cn2)CC1 [S3i] | 81
* O=S(=O)(c1ccc(-c2ccc3nccc(NC4CCOCC4)c3c2)cc1)N1CCOCC1 [S3f] | 70

// below: human PPB (plasma protein binding) requested for another compound
Given item O=S(=O)(c1ccc(-c2ccc3nccc(N[C@@H]4CCCC[C@H]4O)c3c2)cc1)N1CCOCC1 (relative stereo) [S3d] , the value recorded as its human PPB (plasma protein binding) is 72

The reported numbers originate from paper PMC7073886.
